quantity_name: melting point

O=C(CSc1n[nH]c(-c2ccccc2)n1)C12CC3CC(CC(C3)C1)C2    187 to 188 °C
O=C(Nc1nnc(SCC(=O)C23CC4CC(CC(C4)C2)C3)s1)C1CC1    218 to 219 °C

Request: Consider the compound "CC(=O)Nc1nnc(SCC(=O)C23CC4CC(CC(C4)C2)C3)s1" and give its recorded melting point.
Result: 208 to 210 °C

Request: Consider the compound "Cc1nnc(SCC(=O)C23CC4CC(CC(C4)C2)C3)n1Cc1ccc(Cl)cc1" and give its recorded melting point.
Result: 158 to 159 °C

Request: Consider the compound O=C(C[S+]([O-])Cc1cccnc1)C12CC3CC(CC(C3)C1)C2 (stereo not drawn) and give its recorded melting point.
Result: 116 to 119 °C

Request: Consider the compound "Nc1nnc(SCC(=O)C23CC4CC(CC(C4)C2)C3)s1" and give its recorded melting point.
Result: 198 to 199 °C

Request: Consider the compound "COCc1nnc(SCC(=O)C23CC4CC(CC(C4)C2)C3)n1C" and give its recorded melting point.
Result: 109 to 111 °C

----------
Molecular target: 11β-HSD1 (Homo sapiens)
Construct: expressed in transfected cells; host or cells: HEK 293 (stably transfected, HEK 293/HSD11B1)
Assay: 11β-HSD1 HEK assay (cell based assay, SPA)
Details: HEK293; at 1 μM; whole HEK 293 cells stably transfected with the HSD11B1 gene, 3H-cortisone substrate; read-out: Activity (inhibition of 11β-HSD1)
quantity_name: inhibition at 1 µM

Some compounds with recorded inhibition at 1 µM:
Cc1cccc(SCC(=O)C23CC4CC(CC(C4)C2)C3)n1    > 60%
O=C(C[S+]([O-])Cc1ccc(Cl)nc1)C12CC3CC(CC(C3)C1)C2 (centres unmarked)    > 60%

Request: Consider the compound "CC(=O)Nc1nnc(SCC(=O)C23CC4CC(CC(C4)C2)C3)s1" and give its recorded inhibition at 1 µM.
Result: > 60%

Request: Consider the compound "O=C(CSc1n[nH]c(-c2ccccc2)n1)C12CC3CC(CC(C3)C1)C2" and give its recorded inhibition at 1 µM.
Result: < 20%

Request: Consider the compound "Cn1c(SCC(=O)C23CC4CC(CC(C4)C2)C3)nc2ccccc21" and give its recorded inhibition at 1 µM.
Result: < 20%

----------
Examples of compounds with documented inhibition at 1 µM follow.
Molecular target: 11β-HSD1 (Homo sapiens)
Construct: expressed in transfected cells; host or cells: HEK 293 (stably transfected, HEK 293/HSD11B1)
Assay: 11β-HSD1 HEK assay (cell based assay, SPA)
Settings: HEK293; at 1 μM; whole HEK 293 cells stably transfected with the HSD11B1 gene, 3H-cortisone substrate; read-out: Activity (inhibition of 11β-HSD1)

Some compounds with recorded inhibition at 1 µM:
Cn1ccnc1SCC(=O)C1(c2ccc(Cl)cc2)CCC1    20 to 60%
O=C(Nc1nnc(S(=O)(=O)CC(=O)C23CC4CC(CC(C4)C2)C3)s1)C1CC1    > 60%
Cn1cnnc1S(=O)(=O)CC(=O)C12CC3CC(CC(C3)C1)C2    > 60%

Request: Consider the compound "O=C(CSc1n[nH]c(-c2ccco2)n1)C12CC3CC(CC(C3)C1)C2" and give its recorded inhibition at 1 µM.
Result: < 20%

Request: Consider the compound "O=C(CSc1ccccn1)C1(c2ccc(Cl)cc2)CCC1" and give its recorded inhibition at 1 µM.
Result: 20 to 60%

Request: Consider the compound Cn1ccnc1[S+]([O-])CC(=O)C1(c2ccc(Cl)cc2)CCC1 (stereo not shown) and give its recorded inhibition at 1 µM.
Result: < 20%

Request: Consider the compound "O=C(CSc1ccncc1)C12CC3CC(CC(C3)C1)C2" and give its recorded inhibition at 1 µM.
Result: > 60%

Request: Consider the compound "CSc1nnc(SCC(=O)C23CC4CC(CC(C4)C2)C3)s1" and give its recorded inhibition at 1 µM.
Result: > 60%

Request: Consider the compound Cn1ccnc1[S+]([O-])CC(=O)C1(c2ccc(Cl)cc2)CCCC1 (stereo not shown) and give its recorded inhibition at 1 µM.
Result: 20 to 60%

Request: Consider the compound "Cn1cnnc1SCC(=O)C(C)(C)c1ccc(Cl)cc1" and give its recorded inhibition at 1 µM.
Result: 20 to 60%

Request: Consider the compound "Cn1ccnc1S(=O)(=O)CC(=O)C1(c2ccc(Cl)cc2)CC1" and give its recorded inhibition at 1 µM.
Result: < 20%

Request: Consider the compound "Cn1cnnc1SCC(=O)C1(c2ccc(Cl)cc2)CC1" and give its recorded inhibition at 1 µM.
Result: 20 to 60%

Request: Consider the compound "O=C(CS(=O)(=O)c1ccccn1)C1(c2ccc(Cl)cc2)CC1" and give its recorded inhibition at 1 µM.
Result: < 20%

Request: Consider the compound O=C(C[S+]([O-])c1ccc(C(F)(F)F)cn1)C12CC3CC(CC(C3)C1)C2 (stereo not shown) and give its recorded inhibition at 1 µM.
Result: 20 to 60%

Request: Consider the compound "Cn1cnnc1SCC(=O)C1(c2ccc(Cl)cc2)CCC1" and give its recorded inhibition at 1 µM.
Result: 20 to 60%

Request: Consider the compound "COc1ccncc1COCC(=O)C12CC3CC(CC(C3)C1)C2" and give its recorded inhibition at 1 µM.
Result: > 60%

Request: Consider the compound Cn1ccnc1[S+]([O-])C(C)(C)C(=O)C12CC3CC(CC(C3)C1)C2 (stereo not shown) and give its recorded inhibition at 1 µM.
Result: < 20%

Request: Consider the compound "O=C(COc1cccc(Cl)n1)C12CC3CC(CC(C3)C1)C2" and give its recorded inhibition at 1 µM.
Result: 20 to 60%

Request: Consider the compound "O=C(CSc1ccccn1)C1(c2ccc(Cl)cc2)CCCCC1" and give its recorded inhibition at 1 µM.
Result: 20 to 60%

----------
Target: 11β-HSD1 (Homo sapiens, UniProt P28845)
Construct: expressed in transfected cells; host or cells: HEK 293 (stably transfected, HEK 293/HSD11B1)
Sequence (P28845 whole entry): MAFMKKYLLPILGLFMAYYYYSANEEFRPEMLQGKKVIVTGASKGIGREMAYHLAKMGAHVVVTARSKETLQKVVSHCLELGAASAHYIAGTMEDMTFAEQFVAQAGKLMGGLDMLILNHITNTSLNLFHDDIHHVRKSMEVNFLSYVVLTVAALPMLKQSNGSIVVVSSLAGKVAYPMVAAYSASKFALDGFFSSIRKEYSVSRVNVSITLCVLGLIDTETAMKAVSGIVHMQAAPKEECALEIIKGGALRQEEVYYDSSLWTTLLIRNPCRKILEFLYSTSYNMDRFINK
Assay: 11β-HSD1 HEK assay (cell based assay, SPA)
Settings: HEK293; at 1 μM; whole HEK 293 cells stably transfected with the HSD11B1 gene, 3H-cortisone substrate; read-out: Activity (inhibition of 11β-HSD1)
quantity_name: inhibition at 1 µM

O=C(COCc1ccccn1)C1(c2ccc(Cl)cc2)CCC1 [Example 42]    < 20%
CC(=O)Nc1nnc([S+]([O-])CC(=O)C23CC4CC(CC(C4)C2)C3)s1 (centres unmarked) [Example 94]    > 60%
Nc1nnc(SCC(=O)C23CC4CC(CC(C4)C2)C3)s1 [Example 88]    > 60%
COc1cncc(COCC(=O)C23CC4CC(CC(C4)C2)C3)c1 [Example 98]    > 60%

Please find the next compound below.
Request: Consider the compound Cn1ccnc1SCC(=O)C1(c2ccc(Cl)cc2)CC1 [Example 1] and give its recorded inhibition at 1 µM.
Result: > 60%

----------
Target: 11β-HSD1 (Homo sapiens, UniProt P28845)
Construct: expressed in transfected cells; host or cells: HEK 293 (stably transfected, HEK 293/HSD11B1)
Assay: 11β-HSD1 HEK assay (cell based assay, SPA)
Settings: HEK293; at 1 μM; whole HEK 293 cells stably transfected with the HSD11B1 gene, 3H-cortisone substrate; read-out: Activity (inhibition of 11β-HSD1)
Protocol: 11β-HSD1 HEK Assay Protocol (Cell Based Assay) 11β-HSD1 activity is measured in whole HEK 293 cells stably transfected with the HSD11B1 gene. Cells are incubated in 96-well microplates in the presence of tritiated substrate. Enzyme activity is determined by measuring the amount of tritated product by scintillation proximity assay (SPA). Assay plates contain internal high and low controls to allow calculation of percentage inhibition. 1. […] 2. […]
quantity_name: inhibition at 1 µM

Some compounds with recorded inhibition at 1 µM:
O=C(COc1cccnc1)C12CC3CC(CC(C3)C1)C2 [Example 61]    > 60%
O=C(CSCc1cccnc1)C12CC3CC(CC(C3)C1)C2 [Example 7]    > 60%
Cc1nnc([S+]([O-])CC(=O)C23CC4CC(CC(C4)C2)C3)s1 (stereo not drawn) [Example 80]    > 60%
CN(C)C(=O)c1ccc(SCC(=O)C23CC4CC(CC(C4)C2)C3)nc1 [Example 35]    > 60%

Please find the next compound below.
Request: Find inhibition at 1 µM for O=C(CS(=O)(=O)Cc1cccnc1)C12CC3CC(CC(C3)C1)C2 [Example 9] on 11β-HSD1 (Homo sapiens, UniProt P28845) and write it down.
Result: > 60%

----------
Examples of compounds with documented inhibition at 1 µM follow.
Target: 11β-HSD1 (Homo sapiens, UniProt P28845)
Construct: expressed in transfected cells; host or cells: HEK 293 (stably transfected, HEK 293/HSD11B1)
Assay: 11β-HSD1 HEK assay (cell based assay, SPA)
Settings: HEK293; at 1 μM; whole HEK 293 cells stably transfected with the HSD11B1 gene, 3H-cortisone substrate; read-out: Activity (inhibition of 11β-HSD1)
Experimental: 11β-HSD1 HEK Assay Protocol (Cell Based Assay) 11β-HSD1 activity is measured in whole HEK 293 cells stably transfected with the HSD11B1 gene. Cells are incubated in 96-well microplates in the presence of tritiated substrate. Enzyme activity is determined by measuring the amount of tritated product by scintillation proximity assay (SPA). Assay plates contain internal high and low controls to allow calculation of percentage inhibition. 1. […] 2. […]

CNC(=O)c1ccc(SCC(=O)C23CC4CC(CC(C4)C2)C3)nc1    > 60%
Cn1nnnc1SCC(=O)C12CC3CC(CC(C3)C1)C2    > 60%

Request: Consider the compound "O=C(CS(=O)(=O)Cc1cccc[n+]1[O-])C12CC3CC(CC(C3)C1)C2" and give its recorded inhibition at 1 µM.
Result: > 60%

Request: Consider the compound "O=C(CS(=O)(=O)Cc1ccc(C(F)(F)F)nc1)C12CC3CC(CC(C3)C1)C2" and give its recorded inhibition at 1 µM.
Result: 20 to 60%

Request: Consider the compound "O=C(CSc1ccccn1)C12CC3CC(CC(C3)C1)C2" and give its recorded inhibition at 1 µM.
Result: > 60%

Request: Consider the compound Cc1cc(C)c(C(=O)C[S+]([O-])c2ccccn2)c(C)c1 (centres unmarked) and give its recorded inhibition at 1 µM.
Result: < 20%

Request: Consider the compound O=C(C[S+]([O-])c1ccccn1)C1(c2ccc(Cl)cc2)CCCCC1 (centres unmarked) and give its recorded inhibition at 1 µM.
Result: < 20%

Request: Consider the compound "O=C(COc1ccc(C(F)(F)F)cn1)C12CC3CC(CC(C3)C1)C2" and give its recorded inhibition at 1 µM.
Result: 20 to 60%

Request: Consider the compound "O=C(O)c1ccc(SCC(=O)C23CC4CC(CC(C4)C2)C3)nc1" and give its recorded inhibition at 1 µM.
Result: > 60%

Request: Consider the compound "O=C(Nc1nnc(SCC(=O)C23CC4CC(CC(C4)C2)C3)s1)C1CC1" and give its recorded inhibition at 1 µM.
Result: 20 to 60%

Request: Consider the compound "Cn1ccnc1SCC(=O)C(C)(C)c1ccc(Cl)cc1" and give its recorded inhibition at 1 µM.
Result: > 60%

Request: Consider the compound "O=C(CS(=O)(=O)Cc1ccc(Cl)nc1)C12CC3CC(CC(C3)C1)C2" and give its recorded inhibition at 1 µM.
Result: > 60%

Request: Consider the compound "COc1cccnc1COCC(=O)C12CC3CC(CC(C3)C1)C2" and give its recorded inhibition at 1 µM.
Result: > 60%
